Source listed as patent US20240270821A1.

- study target: hGLP-1R (Homo sapiens)
- Sequence (P43220 24-463): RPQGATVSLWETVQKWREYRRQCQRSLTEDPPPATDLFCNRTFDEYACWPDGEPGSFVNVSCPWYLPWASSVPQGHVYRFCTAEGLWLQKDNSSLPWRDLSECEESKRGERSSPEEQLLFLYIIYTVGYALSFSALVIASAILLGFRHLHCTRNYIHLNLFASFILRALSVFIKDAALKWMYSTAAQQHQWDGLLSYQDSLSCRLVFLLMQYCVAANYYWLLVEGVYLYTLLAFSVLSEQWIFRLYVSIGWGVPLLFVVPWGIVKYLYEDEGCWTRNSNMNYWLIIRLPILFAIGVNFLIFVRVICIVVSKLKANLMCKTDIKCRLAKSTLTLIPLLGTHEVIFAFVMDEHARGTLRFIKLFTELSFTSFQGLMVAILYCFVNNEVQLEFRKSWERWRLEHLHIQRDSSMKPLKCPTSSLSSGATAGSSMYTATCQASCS
- test protocol: Functional cAMP activation in the presence of 0.1% casein (no HSA);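 further: intracellular cAMP rise after 30 min at 37 °C read by HTRF, normalized between buffer only (0%) and maximal control ligand (100%), four-parameter variable-slope fit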
- Format: cell-based
- condition notes: in the presence of 0.1% casein (no HSA); geometric mean; read-out: Relative cAMP EC50, hGLP-1R
pEC50: −log10 of the molar value. Starred links: 1 amine or outer side, 2 acyl side, 3 side chain; linkers in the order of their positions; H or OH if unused. Non-standard residues stand in square brackets, D forms with d. Groups on a side chain read outwards from the residue. No end group written: not given here. *: point of attachment. C20 diacid = O=C(O)CCCCCCCCCCCCCCCCCCC(=O)*; C18 diacid = O=C(O)CCCCCCCCCCCCCCCCC(=O)*; αMePhe(2-F) = C[C@](N)(Cc1ccccc1F)C(=O)O; γGlu = O=C(O)[C@H](CCC(=O)[*:2])N[*:1]; NMeY = CN[C@@H](Cc1ccc(O)cc1)C(=O)O; αMe4Pal = C[C@](N)(Cc1ccncc1)C(=O)O; αMeY = C[C@](N)(Cc1ccc(O)cc1)C(=O)O; 4Pal = N[C@@H](Cc1ccncc1)C(=O)O; αMeL = CC(C)C[C@](C)(N)C(=O)O; αMeS = C[C@](N)(CO)C(=O)O; Orn = NCCC[C@H](N)C(=O)O; AEEA = NCCOCCOCC(=O)O; Aib = CC(C)(N)C(=O)O
Measured pEC50 of individual entries

- substance: "H-Y[Aib]QGTFTSD[4Pal]SQ[αMeL]LD[Orn]K([Glu-γGlu-C18 diacid])AQ[αMe4Pal]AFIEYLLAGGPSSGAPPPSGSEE-NH2 [Example 1057]"
  pEC50: 8.29
- substance: "H-Y[Aib]QGTFTSDFS[Orn][αMeL]LDKK([AEEA-γGlu-C18 diacid])AQ[Aib]AFIEYLLEGGPSSGEPPPSGS-NH2 [Example 131]"
  pEC50: 8.26
- substance: "H-Y[Aib]QGTFTSD[4Pal]SQ[αMeL]LD[Orn]K([dE-γGlu-C18 diacid])AQ[αMe4Pal]AFIE[αMeY]LLAGGPSSGAPPPSGSEEE-NH2 [Example 1082]"
  pEC50: 8.38
- substance: "H-Y[Aib]QGT[αMePhe(2-F)]TSDYSILLDKAAQK([AEEA-γGlu-C20 diacid])[Orn]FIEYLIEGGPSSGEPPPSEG-NH2 [Example 306]"
  pEC50: 9.47
- substance: "H-Y[Aib]QGTFTSD[4Pal]SR[αMeL]LDKK([γGlu-γGlu-C18 diacid])AQ[αMe4Pal]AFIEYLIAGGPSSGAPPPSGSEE-NH2 [Example 962]"
  pEC50: 8.87
- substance: "H-Y[Aib]QGTFTSD[4Pal]SQ[αMeL]LDKK([γGlu-γGlu-C18 diacid])AQ[Aib]AFIE[αMeY]LLEGGPSSGAPPPSGSEE-NH2 [Example 945]"
  pEC50: 8.41
- substance: "H-Y[Aib]QGTFTSD[4Pal]SR[αMeL]LDKK([AEEA-γGlu-C18 diacid])AQ[Aib]AFIE[αMeY]LIEGGPSSGAPPPSGS-NH2 [Example 837]"
  pEC50: 9.26
- substance: "Y[Aib]QGTFTSD[4Pal]S[Orn][αMeL]LD[Orn]K([γGlu-γGlu-C18 diacid])AQ[αMe4Pal]QFIE[αMeY]LIEGGPSSGAPPPSGSEE-NH2 [Example 972]"
  pEC50: 8.69
- substance: "[NMeY][Aib]QGTFTSD[4Pal][αMeS]I[αMeL]LD[Orn]K([dE-γGlu-C18 diacid])AQ[αMe4Pal]QFIQ[αMeY]LIE[Aib]GPSSGAPPPSGGGE-NH2 [Example 1135]"
  pEC50: 9.13
- substance: "H-Y[Aib]QGT[αMePhe(2-F)]TSD[4Pal][αMeS]I[αMeL]LD[Orn]K([γGlu-γGlu-C18 diacid])AQ[αMe4Pal]EFI[dE][αMeY]LVEGGPSSGEPPPSGSE-NH2 [Example 1163]"
  pEC50: 9.35
- substance: "H-Y[Aib]QGT[αMePhe(2-F)]TSD[4Pal][αMeS]I[αMeL]LD[Orn]K([AEEA-γGlu-γGlu-C18 diacid])AQ[αMe4Pal]EFI[dE][αMeY]LIEGGPSSGEPPPSGGGE-NH2 [Example 1181]"
  pEC50: 9.18
- substance: "H-Y[Aib]QGTFTSD[4Pal]SQ[αMeL]LD[Orn]K([γGlu-γGlu-C18 diacid])AQ[αMe4Pal]AFIEYLIE[Aib]GPSSGAPPPSGSEE-NH2 [Example 937]"
  pEC50: 8.60
- substance: "H-Y[Aib]QGTFTSDFSK[αMeL]LDKK([AEEA-γGlu-C20 diacid])AQ[Aib]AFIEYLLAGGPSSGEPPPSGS-NH2 [Example 8]"
  pEC50: 8.68
- substance: "H-Y[Aib]QGTFTSD[4Pal]SQ[αMeL]LD[Orn]K([γGlu-γGlu-C18 diacid])AQ[αMe4Pal]QFIE[αMeY]LIEGGPSSGAPPPSGSEE-NH2 [Example 1046]"
  pEC50: 8.71
- substance: "H-Y[Aib]QGTFTSD[4Pal]SQ[αMeL]LDKK([AEEA-γGlu-γGlu-C18 diacid])AQ[αMe4Pal]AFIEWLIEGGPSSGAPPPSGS-NH2 [Example 871]"
  pEC50: 8.53
- substance: "H-Y[Aib]QGTFTSD[4Pal]S[Orn][αMeL]LD[Orn]K([γGlu-γGlu-C18 diacid])AQ[αMe4Pal][Orn]FIEYLLAGGPSSGAPPPSGSEE-NH2 [Example 1004]"
  pEC50: 8.03
- substance: "H-Y[Aib]QGTFTSD[4Pal]SQ[αMeL]LDKK([AEEA-γGlu-C18 diacid])AQ[αMe4Pal]AFIEYLIE[Aib]GESSGAPPPSGS-NH2 [Example 226]"
  pEC50: 8.71
- substance: "H-Y[Aib]QGTFTSDFS[Orn][αMeL]LDKK([AEEA-γGlu-C20 diacid])AQ[Aib]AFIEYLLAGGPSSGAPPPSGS-NH2 [Example 76]"
  pEC50: 8.65
- substance: "H-Y[Aib]QGTFTSD[4Pal]SQ[αMeL]LDKK([AEEA-γGlu-C18 diacid])AQ[αMe4Pal]AFIEYLIE[Aib]GPSSGAPPPSGSGE-NH2 [Example 888]"
  pEC50: 8.30
- substance: "H-Y[Aib]QGTFTSD[4Pal]SR[αMeL]LDKK([AEEA-γGlu-C18 diacid])AQ[Aib]AFIEYLIE[Aib]GESSGAPPPSGS-NH2 [Example 187]"
  pEC50: 8.95
- substance: "H-Y[Aib]QGTFTSD[4Pal]S[Orn][αMeL]LDKK([γGlu-γGlu-γGlu-C18 diacid])AQ[αMe4Pal]AFIEYLIE[Aib]GPSSGAPPPSGS-NH2 [Example 866]"
  pEC50: 8.40
- substance: "H-Y[Aib]QGT[αMePhe(2-F)]TSD[4Pal][αMeS]I[αMeL]LD[Orn]K([AEEA-γGlu-C18 diacid])AQ[αMe4Pal]EFI[dE][αMeY]LIEGGPSSGAPPPGGE-NH2 [Example 1144]"
  pEC50: 9.55
